Source: ChEMBL document CHEMBL3988442

Target: Proteasome subunit beta (Trypanosoma cruzi)
Experiment: Trypanosoma cruzi proteasome chymotrypsin-like activity (TcProtChymo) assay. Further: in the data most compounds retested in dose-response had high values.
Type: functional
Set-up: scale not given: direction of the effect not stated beside the values
Details: 9.37 µM
For each of the molecules below, state its Percent Effect.
Lab book: enter the figure in %, no units written.

Entry Cc1nc(C)n(CC2CCCN(CCC(=O)N3CCCCC3)C2)n1 (centres undefined) , Percent Effect reported as -0.566

Entry "Cc1nc(CN2CCC(CNC(=O)Nc3ccccn3)CC2)oc1C" , Percent Effect reported as -1.46

Entry CCOCC(O)CN1CCN(C(=O)c2cccnc2OC)CC1 (centres undefined) , Percent Effect reported as -3.72

Entry Cc1nccn1C1CCCN(C(=O)c2ccc3c(c2)NC(=O)CO3)C1 (centres undefined) , Percent Effect reported as 14.1

Entry CNC(=O)C1Cn2ccnc2C2(CCN(Cc3cccnc3)CC2)O1 (centres undefined) , Percent Effect reported as 23.4

Entry CC(C)c1noc(CN2CCC3(CCCO3)CCC2=O)n1 (centres undefined) , Percent Effect reported as 2.27

Entry Cc1nn(C)c(C)c1C1CCCN1C(=O)c1cnc2n[nH]c(C)c2c1 (centres undefined) , Percent Effect reported as 0

Entry CN1CCOC(CNCc2coc(-c3cccs3)n2)C1 (centres undefined) , Percent Effect reported as 8.27

Entry Cc1ccc(-c2nc(CN3CCOC(Cn4cccn4)C3)cs2)o1 (centres undefined) , Percent Effect reported as 12.4

Entry "Cc1ccc(NC2CCN(C(=O)c3c(C)noc3C)CC2)nn1" , Percent Effect reported as 3.68

Entry "Cc1c(C)n(Cc2ccncc2)c2nc3c(c(N)c12)CCCCC3" , Percent Effect reported as 15.3

Entry O=C1CC(c2ccsc2)c2sc(C(=O)O)c(-c3ccccc3)c2N1 (centres undefined) , Percent Effect reported as 21.9

Entry "CN(C)C(=O)[C@@H]1C[C@@H]2CCN(Cc3ccc4c(c3)OCO4)C[C@@H]2O1" , Percent Effect reported as 6.62

Entry "O=C(NCCOc1ccc2c(c1)CCC2)N1CCS(=O)(=O)CC1" , Percent Effect reported as 1.28

Entry Cc1cnn(CC2CCCCN2CCCS(N)(=O)=O)c1 (centres undefined) , Percent Effect reported as 11.3

Entry OCC1CCCN1c1cc(NCCNc2ccccn2)ncn1 (centres undefined) , Percent Effect reported as 20.4

Entry Cc1cc(CN2CCCC2Cn2cncn2)no1 (centres undefined) , Percent Effect reported as 17

Entry "COc1ncc(-c2nccn2CCN(C)C)cn1" , Percent Effect reported as 20.9

Entry "CC(=O)N1CCN(C(=O)c2cc(-n3cnnn3)ccc2Cl)CC1" , Percent Effect reported as 6.04

---

Target: Sialic acid-binding Ig-like lectin 9 (Homo sapiens)
Test: Hs-Siglec9 ALPHAscreen SOP 20170721
Design: scale not given: direction of the effect not stated beside the values
Conditions: 10 µM
For each of the molecules below, state its Percent Effect.
Lab book: enter the figure in %, no units written.

Entry O=C(NC1COC2(CCN(Cc3ccccn3)CC2)C1)c1ccccn1 (stereo not drawn) , Percent Effect reported as -5.11

Entry CCn1ccnc1CNCC1CCN(CC(O)c2ccccc2)CC1 (stereo not drawn) , Percent Effect reported as -9.4

Entry "CC(C)c1nn(C)c(N2CCOCC2)c1CNCC(=O)N(C)C" , Percent Effect reported as -8.89
